Cited source: ChEMBL document CHEMBL4428118

# run.description: Stability in bovine liver microsomes assessed as drug recovery at 25 uM after 30 mins in presence of beta-NADPH by HPLC analysis
# Format: ADME, Bos taurus, Microsome
# test.settings: cattle, read-out: Drug recovery

| compound | remaining at 0.5 h, 25 µM, % |
| --- | --- |
| CCCCCCCCCCCCCCCCc1nc(N2CCCCC2)nc(OC2CCC2)c1O | 72 |
| CCCCCCCCCCCCCCCCc1nc(N2CCC2)nc(OC(C)C)c1O | 76 |
| CCCCCCCCCCCCCCCCc1nc(N2CCC2)nc(C)c1O | 57 |
| CCCCCCCCCCCCCCCCc1nc(N2CCCC2)nc(OC2CCC2)c1O | 72 |
| CCCCCCCCCCCCCCCCc1nc(N2CCC2)nc(OCC)c1O | 54 |
| CCCCCCCCCCCCCCCCc1nc(N2CCC2)nc(OC2CCC2)c1O | 65 |
| CCCCCCCCCCCCCCCCc1nc(N2CCC2)nc(OC)c1O | 58 |
| CCCCCCCCCCCCCCCOc1nc(N2CCC2)nc(C)c1O | 62 |
| CCCCCCCCCCCCCCCCc1nc(N(C)C)nc(OC)c1O | 46 |
